Molecular target: GPR54 (Homo sapiens, UniProt Q969F8)
Sequence (Q969F8 whole entry, species assumed): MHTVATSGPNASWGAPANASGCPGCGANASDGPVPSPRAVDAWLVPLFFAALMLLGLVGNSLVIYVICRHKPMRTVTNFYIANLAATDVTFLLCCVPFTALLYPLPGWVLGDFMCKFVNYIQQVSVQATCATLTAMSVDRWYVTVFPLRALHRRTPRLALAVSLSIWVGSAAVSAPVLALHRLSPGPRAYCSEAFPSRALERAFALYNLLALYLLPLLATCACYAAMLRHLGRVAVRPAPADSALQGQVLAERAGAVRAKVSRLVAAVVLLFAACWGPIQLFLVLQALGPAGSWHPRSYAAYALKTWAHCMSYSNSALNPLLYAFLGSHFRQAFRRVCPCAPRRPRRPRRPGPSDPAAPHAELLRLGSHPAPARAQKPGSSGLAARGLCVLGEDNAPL
Assay: GPR54 agonist activity by Flipr assay (increase in intracellular Ca2+ measured as fluorescence intensity)
Type: cell-based
Conditions: fluorescence intensity with 10^-8 M pentapeptide derivative relative to 10^-6 M metastin (45-54) as 100%
Square brackets hold non-standard residues; d marks the D form. Peptide text beside a SMILES is read from it. 4Amb = NCc1ccc(C(=O)O)cc1; 4Abz = Nc1ccc(C(=O)O)cc1
MEASURED_ATTRIBUTE: % activity (%)
Express the result in % but write the number alone.

Exam item: # return recorded % activity for entry CC(C)C[C@H](NC(=O)CNC(=O)[C@H](Cc1ccccc1)NC(=O)c1ccc(O)cc1)C(=O)N[C@@H](CCCNC(=N)N)C(=O)N[C@@H](Cc1c[nH]c2ccccc12)C(N)=O [Compound 30, 4-hydroxybenzoyl-Phe-Gly-Leu-Arg-Trp-NH2]
Marked response: 95

Exam item: Supply % activity value. Item: CC(C)C[C@H](NC(=O)CNC(=O)[C@H](Cc1ccccc1)NC(=O)c1ccc([N+](=O)[O-])cc1)C(=O)N[C@@H](CCCNC(=N)N)C(=O)N[C@@H](Cc1c[nH]c2ccccc12)C(N)=O [Compound 37, 4-nitrobenzoyl-Phe-Gly-Leu-Arg-Trp-NH2]
Marked response: 94

Exam item: State its % activity for this compound: CC(C)C[C@H](NC(=O)CNC(=O)[C@H](Cc1ccccc1)NC(=O)c1c[nH]cn1)C(=O)N[C@@H](CCCNC(=N)N)C(=O)N[C@@H](Cc1c[nH]c2ccccc12)C(N)=O [Compound 26]
Marked response: 88

Exam item: Using the record for CC(C)C[C@H](NC(=O)CNC(=O)[C@H](Cc1ccccc1)NC(=O)c1ccc(N)cc1)C(=O)N[C@@H](CCCNC(=N)N)C(=O)N[C@@H](Cc1c[nH]c2ccccc12)C(N)=O [Compound 20, 4-aminobenzoyl-Phe-Gly-Leu-Arg-Trp-NH2] (H-[4Abz]FGLRW-NH2) , state its measured % activity.
Marked response: 90

Exam item: Recall and state the measured % activity for CC(C)C[C@H](NC(=O)CNC(=O)[C@H](Cc1ccccc1)NC(=O)c1ccc(CNC(=N)N)cc1)C(=O)N[C@@H](CCCNC(=N)N)C(=O)N[C@@H](Cc1c[nH]c2ccccc12)C(N)=O [Compound 2, reference compound] .
Marked response: 94

Exam item: Assign % activity to the following record: CC(C)C[C@H](NC(=O)CNC(=O)[C@H](Cc1ccccc1)NC(=O)c1ccc(Cl)cc1)C(=O)N[C@@H](CCCNC(=N)N)C(=O)N[C@@H](Cc1c[nH]c2ccccc12)C(N)=O [Compound 38, 4-chlorobenzoyl-Phe-Gly-Leu-Arg-Trp-NH2]
Marked response: 92

Exam item: Check the records and state % activity for CC(C)C[C@H](NC(=O)CNC(=O)[C@H](Cc1ccccc1)NC(=O)c1ccc[nH]1)C(=O)N[C@@H](CCCNC(=N)N)C(=O)N[C@@H](Cc1c[nH]c2ccccc12)C(N)=O [Compound 27]
Marked response: 96

Exam item: Identify measured % activity associated with CC(C)C[C@H](NC(=O)CNC(=O)[C@H](Cc1ccccc1)NC(=O)c1ccc(CN)cc1)C(=O)N[C@@H](CCCNC(=N)N)C(=O)N[C@@H](Cc1c[nH]c2ccccc12)C(N)=O [Compound 6] (H-[4Amb]FGLRW-NH2)
Marked response: 97

---

Molecular target: GPR54 (Homo sapiens)
Assay: GPR54 agonist activity by Flipr assay (increase in intracellular Ca2+ measured as fluorescence intensity)
Type: cell-based
Conditions: fluorescence intensity with 10^-8 M pentapeptide derivative relative to 10^-6 M metastin (45-54) as 100%
Square brackets hold non-standard residues; d marks the D form. Peptide text beside a SMILES is read from it. 2Nal = N[C@@H](Cc1ccc2ccccc2c1)C(=O)O; 4Amb = NCc1ccc(C(=O)O)cc1
Field: % activity. Provide a value for each of the compounds that follow.
All answers are understood in %, so give the number only.

Exam item: Find the measured % activity of CC(C)C[C@H](NC(=O)CNC(=O)[C@H](Cc1ccccc1)NC(=O)[C@H](CO)NC(=O)[C@H](CC(N)=O)NC(=O)[C@H](Cc1c[nH]c2ccccc12)NC(=O)[C@H](CC(N)=O)NC(=O)[C@@H](N)Cc1ccc(O)cc1)C(=O)N[C@@H](CCCNC(=N)N)C(=O)N[C@@H](Cc1ccccc1)C(N)=O [Metastin (45-54), reference compound] with GPR54 (Homo sapiens) as test system.
Marked response: 100

Exam item: Supply % activity measured with GPR54 (Homo sapiens) for CC(C)C[C@H](NC(=O)CNC(=O)[C@H](Cc1ccc2ccccc2c1)NC(=O)c1ccc(CN)cc1)C(=O)N[C@@H](CCCNC(=N)N)C(=O)N[C@@H](Cc1c[nH]c2ccccc12)C(N)=O [Compound 8] (H-[4Amb][2Nal]GLRW-NH2) .
Marked response: 89

---

Molecular target: GPR54 (Homo sapiens, UniProt Q969F8)
Test: GPR54 agonist activity by Flipr assay (increase in intracellular Ca2+ measured as fluorescence intensity)
Assay type: cell-based
Settings: fluorescence intensity with 10^-8 M pentapeptide derivative relative to 10^-6 M metastin (45-54) as 100%
Square brackets hold non-standard residues; d marks the D form. Peptide text beside a SMILES is read from it. 4Amb = NCc1ccc(C(=O)O)cc1
MEASURED_ATTRIBUTE: % activity (%)
Give a bare numeral; the unit % is implied.

Exam item: Return reported % activity. Input molecule: CC(C)C[C@H](NC(=O)CNC(=O)[C@H](Cc1ccccc1)NC(=O)c1ccc(CN(Cc2ccccn2)Cc2ccccn2)cc1)C(=O)N[C@@H](CCCNC(=N)N)C(=O)N[C@@H](Cc1c[nH]c2ccccc12)C(N)=O [Compound 1, reference compound]
Marked response: 89

Exam item: Report measured % activity; entry is CC(C)C[C@H](NC(=O)CNC(=O)[C@H](Cc1ccccc1)NC(=O)c1ccc(F)cc1)C(=O)N[C@@H](CCCNC(=N)N)C(=O)N[C@@H](Cc1c[nH]c2ccccc12)C(N)=O
Marked response: 96

Exam item: Consider the molecule CC(=O)NCc1ccc(C(=O)N[C@@H](Cc2ccccc2)C(=O)NCC(=O)N[C@@H](CC(C)C)C(=O)N[C@@H](CCCNC(=N)N)C(=O)N[C@@H](Cc2c[nH]c3ccccc23)C(N)=O)cc1 [Compound 28] (Ac-[4Amb]FGLRW-NH2) and give its recorded % activity.
Marked response: 100
